Structures can show the parent of a compound that is named as a salt.

- COMPOUND: "COCCNC(=O)c1sc(NC(=O)c2nnn(Cc3ccc(Cl)c(Cl)c3)c2C)nc1C [Example 26]"
  BOUND_OPERATOR: "="
  melting point (°C): 129
- COMPOUND: "COCc1c(C(=O)Nc2ncc(CO)s2)nnn1Cc1ccc(Cl)c(Cl)c1 [Example 40]"
  BOUND_OPERATOR: "="
  melting point (°C): 205
- COMPOUND: "COC(=O)c1ccc(NC(=O)c2nnn(Cc3ccc(Cl)c(Cl)c3)c2C)nc1 [Example 14]"
  BOUND_OPERATOR: "="
  melting point (°C): 179
- COMPOUND: "CNC(=O)c1ccnc(NC(=O)c2nnn(Cc3ccc(Cl)c(Cl)c3)c2C)c1 [Example 32]"
  BOUND_OPERATOR: "="
  melting point (°C): 234.1
- COMPOUND: "Cc1c(C(=O)Nc2ncc(C=O)s2)nnn1Cc1ccc(Cl)c(Cl)c1 [Example 5]"
  BOUND_OPERATOR: ">"
  melting point (°C): 260
- COMPOUND: "Cc1c(C(=O)Nc2ncc(CO)s2)nnn1Cc1ccc(Cl)c(Cl)c1 [Example 39]"
  BOUND_OPERATOR: "="
  melting point (°C): 170.5
- COMPOUND: "COc1ccc2nc(C(=O)Nc3nnn(Cc4ccc(Cl)c(Cl)c4)c3C)sc2c1 [Example 45]"
  BOUND_OPERATOR: "="
  melting point (°C): 176
- COMPOUND: "Cc1nc(NC(=O)c2nnn(Cc3ccc(Cl)c(Cl)c3)c2C)sc1C(=O)NCCC(C)C [Example 19]"
  BOUND_OPERATOR: "="
  melting point (°C): 174.3
- COMPOUND: "Cc1nc(NC(=O)c2nnn(Cc3ccc(Cl)c(Cl)c3)c2C)sc1CO [Example 41]"
  BOUND_OPERATOR: "="
  melting point (°C): 161.8
- COMPOUND: "CCOC(=O)Cc1nc(NC(=O)c2nnn(Cc3ccc(Cl)c(Cl)c3)c2C)sc1C [Example 12]"
  BOUND_OPERATOR: "="
  melting point (°C): 125
- COMPOUND: "Cc1nc(NC(=O)c2nnn(Cc3ccc(Cl)c(Cl)c3)c2C)sc1C [Example 10]"
  BOUND_OPERATOR: "="
  melting point (°C): 210.4
- COMPOUND: "Cc1nc(NC(=O)c2nnn(Cc3ccc(Cl)c(Cl)c3)c2C)sc1C(=O)N(C)C (as salt: hydrochloride) [Example 28]"
  BOUND_OPERATOR: "="
  melting point (°C): 144
- COMPOUND: "Cc1c(C(=O)Nc2nc3[nH]c(=O)[nH]c(=O)c3s2)nnn1Cc1ccc(Cl)c(Cl)c1"
  BOUND_OPERATOR: "="
  melting point (°C): 279.9
- COMPOUND: "COCc1nnc(NC(=O)c2nnn(Cc3ccc(Cl)c(Cl)c3)c2C)s1 [Example 7]"
  BOUND_OPERATOR: "="
  melting point (°C): 178.3
- COMPOUND: "Cc1nc(NC(=O)c2nnn(Cc3ccc(Cl)c(Cl)c3)c2C)sc1C(=O)O [Example 16]"
  BOUND_OPERATOR: "="
  melting point (°C): 262.6
- COMPOUND: "CNC(=O)c1cnc(NC(=O)c2nnn(Cc3ccc(Cl)c(Cl)c3)c2C)s1 [Example 29]"
  BOUND_OPERATOR: "="
  melting point (°C): 335.6
- COMPOUND: "COc1ccc2nc(NC(=O)c3nnn(Cc4ccc(Cl)c(Cl)c4)c3C)sc2c1"
  BOUND_OPERATOR: "="
  melting point (°C): 225
- COMPOUND: "Cc1nc(NC(=O)c2nnn(Cc3ccc(Cl)c(Cl)c3)c2C)sc1C(=O)NCCN(C)C.Cl"
  BOUND_OPERATOR: "="
  melting point (°C): 121
